- System: KNS62
- protocol_notes: PKMYT1 siRNA knockdown proliferation assay (ViaLight, 72 hours)
- Type: cell-based, human
- experimental_context: Homo sapiens, KNS-62, 72 h, PKMYT1 knocked down; 72 hours; n=2; read-out: anti-proliferative EC50
quantity_measured: EC50 (nM)
Give your result in nM as a bare value.

Param item = C=CCn1c(=O)c2cnc(Nc3ccc(N4CCN(C)CC4)cc3)nc2n1-c1cccc(C(C)(C)O)n1 ; retrieve measured EC50.
93

---

- Test system: neuroblastoma tumor cell lines
- protocol_notes: Cellular proliferation assay screen (CellTiter-Glo, 96 hours)
- Assay type: cell-based
- experimental_context: Homo sapiens; n=7; read-out: mean EC50
quantity_measured: EC50 (nM)
Give your result in nM as a bare value.

Need EC50, item C=CCn1c(=O)c2cnc(Nc3ccc(N4CCN(C)CC4)cc3)nc2n1-c1cccc(C(C)(C)O)n1
280
